Provide the reported PBM binding z-score of each item.
- Test system: LXRa homodimer (NR concentration 270 nM)
- experimental_details: PBM binding z-score (relative to random genomic background probes); higher = stronger binding; sequences stand for … in GC…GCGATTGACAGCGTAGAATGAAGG
Just the number, please, no unit attached.

Find the measured PBM binding z-score: item TCTTGTAGATCAGCAGGTCAAGAAAGCTGGCCAA , target or system LXRa homodimer (NR concentration 270 nM).
0.209

Find the measured PBM binding z-score: item ACTATTAGTTGACTTAAGGCAACCGATACGACGC , target or system LXRa homodimer (NR concentration 270 nM).
0.175

Find the measured PBM binding z-score: item AGAATGAGGTTACCAAAGATCAGGTAAACGCTTG , target or system LXRa homodimer (NR concentration 270 nM).
-0.313

Find the measured PBM binding z-score: item CCGACTGGGGCAAGGTTTCCATAACGCACAGCCA , target or system LXRa homodimer (NR concentration 270 nM).
-0.44

Find the measured PBM binding z-score: item AGAGACAGGTGATGAAGGTAACTCAGGCTATCAT , target or system LXRa homodimer (NR concentration 270 nM).
0.0687

Find the measured PBM binding z-score: item CGTCAAAGTTCAACTAAGGTAACGTGAAGCACGC , target or system LXRa homodimer (NR concentration 270 nM).
4.57

Find the measured PBM binding z-score: item CCAGACTGGTGAAAGGTAACTCAGTCTGGTACGC , target or system LXRa homodimer (NR concentration 270 nM).
-0.759

Find the measured PBM binding z-score: item ACTATTAGTTGACTTAGGGCGACCGATACGACGC , target or system LXRa homodimer (NR concentration 270 nM).
-0.0351

Find the measured PBM binding z-score: item AGAATGAGGATAAGATCAGGGAAACAGAATACAT , target or system LXRa homodimer (NR concentration 270 nM).
-0.218

Find the measured PBM binding z-score: item GCATACAGGTAATACAAGGTGAAAGTCCGATTGT , target or system LXRa homodimer (NR concentration 270 nM).
0.595

Find the measured PBM binding z-score: item CGTCCAAGGTCAGAAGGTCAGTGAAAGCGACGTG , target or system LXRa homodimer (NR concentration 270 nM).
0.719

Find the measured PBM binding z-score: item CGAACTAGGTCATTGACAGGACCGTGAATAGTAA , target or system LXRa homodimer (NR concentration 270 nM).
0.141

Find the measured PBM binding z-score: item GCGACTGGGGCATCAGCAGGATACCATAACTTAA , target or system LXRa homodimer (NR concentration 270 nM).
-0.678

Find the measured PBM binding z-score: item TCTGCTAGGTCAGTCGGTCAGCTAACGAGCTGCC , target or system LXRa homodimer (NR concentration 270 nM).
-0.313

Find the measured PBM binding z-score: item CTCGAAACGTCGGTTGAGGTGAGTATACGGATAA , target or system LXRa homodimer (NR concentration 270 nM).
-0.566

Find the measured PBM binding z-score: item GGAACGAGGGCAAAGTTGATAGCGTCTGTCGACG , target or system LXRa homodimer (NR concentration 270 nM).
-0.457

Find the measured PBM binding z-score: item ATCGAAAGGTTGAAGGTGAGTATACCCACCCGAA , target or system LXRa homodimer (NR concentration 270 nM).
-0.269

Find the measured PBM binding z-score: item CGTCCAAGGTCAATGCTAGGTCAGTGGAAGCATT , target or system LXRa homodimer (NR concentration 270 nM).
3.02

Find the measured PBM binding z-score: item CCCGACAGGTGAGAAGGTAACTCAGCCTCGATTA , target or system LXRa homodimer (NR concentration 270 nM).
0.072

Find the measured PBM binding z-score: item CGTCCAAGGTCAGGGTCAGTGAAAGAGACTCGAA , target or system LXRa homodimer (NR concentration 270 nM).
-0.0372

Find the measured PBM binding z-score: item AGTCAAAGTTCAGGACGAGGTAACATAAAGCACG , target or system LXRa homodimer (NR concentration 270 nM).
1.38

Find the measured PBM binding z-score: item CCGACTGGGGCAGAAAGGTGACCATACCATCCGG , target or system LXRa homodimer (NR concentration 270 nM).
-0.391

Find the measured PBM binding z-score: item ATCTCTAGGTAAAGTTCGGTGAAAGATCGATAGA , target or system LXRa homodimer (NR concentration 270 nM).
0.491

Find the measured PBM binding z-score: item ACTCGGACGACAAAGGTCAGAGCTACGCCAGTGA , target or system LXRa homodimer (NR concentration 270 nM).
1.27

Find the measured PBM binding z-score: item CCTACTCGGCCATCAGGTCATTGATATCAACGTT , target or system LXRa homodimer (NR concentration 270 nM).
2.13

Find the measured PBM binding z-score: item TAGCCTAGGTCAGATCGGGCCAGTAAACGCTATA , target or system LXRa homodimer (NR concentration 270 nM).
-0.524

Find the measured PBM binding z-score: item CCTCGGAGGACAACAGGAGGACAGAGCTGCCAGA , target or system LXRa homodimer (NR concentration 270 nM).
-0.1

Find the measured PBM binding z-score: item CCTCGCAGGCCAGGGTCACTCAAGCATTTCGCTT , target or system LXRa homodimer (NR concentration 270 nM).
-0.251

Find the measured PBM binding z-score: item CGTCCAAGATCAGAGAGGTCAGTGAATGCCGAGT , target or system LXRa homodimer (NR concentration 270 nM).
1.44

Find the measured PBM binding z-score: item CGTCAAAGTTCAAATAAGGTAACGTAAAGCACGC , target or system LXRa homodimer (NR concentration 270 nM).
4.89

Find the measured PBM binding z-score: item GAGACAGGGTCAGCTAGAGGCCAGAGTATGGAAA , target or system LXRa homodimer (NR concentration 270 nM).
-0.421

Find the measured PBM binding z-score: item CCGACTGGGGCAAGCTTACCATAACGCACAGCCA , target or system LXRa homodimer (NR concentration 270 nM).
-0.49

Find the measured PBM binding z-score: item GGAACGAGGGCAAAGTTGATGGCATCTGTCGACG , target or system LXRa homodimer (NR concentration 270 nM).
-0.0159

Find the measured PBM binding z-score: item AATACAGGGTCATCGTAGGCCAGACTACGCACAG , target or system LXRa homodimer (NR concentration 270 nM).
2.16

Find the measured PBM binding z-score: item TCTTGTAGATCAAGCGGGTTAAGAAAGCCTGAGT , target or system LXRa homodimer (NR concentration 270 nM).
-0.461

Find the measured PBM binding z-score: item CCTACTGGGCCACGAAAGTTCATTGATTCAGTGA , target or system LXRa homodimer (NR concentration 270 nM).
4.62

Find the measured PBM binding z-score: item GCTGGTAGGTCAACTGATGGTCAGCTAAAGCTCG , target or system LXRa homodimer (NR concentration 270 nM).
0.696

Find the measured PBM binding z-score: item CTCGAAAGCTCGTGCTCAGGTGAGTATACCAAAC , target or system LXRa homodimer (NR concentration 270 nM).
-0.669

Find the measured PBM binding z-score: item TAGCCTAGGTCTTGGGCCAGTATACCACGCGAAC , target or system LXRa homodimer (NR concentration 270 nM).
-0.58

Find the measured PBM binding z-score: item TAGCCTAGGCCATGCGGGCCAGTATAGTGTCGGC , target or system LXRa homodimer (NR concentration 270 nM).
-0.671

Find the measured PBM binding z-score: item CGTCCAAGGTCTGAGAGGTCAGTGAATGCCGAGT , target or system LXRa homodimer (NR concentration 270 nM).
0.726

Find the measured PBM binding z-score: item GATACAGGATCAAGGCCAGAGTACGCGTATTGAT , target or system LXRa homodimer (NR concentration 270 nM).
-0.269

Find the measured PBM binding z-score: item GATACAGGGTCAAGGCCTGAGTACGCGTATTGAT , target or system LXRa homodimer (NR concentration 270 nM).
-0.32

Find the measured PBM binding z-score: item GCTATTCGTTGAAAGGGCAACCGAATGATTCTCG , target or system LXRa homodimer (NR concentration 270 nM).
0.342

Find the measured PBM binding z-score: item ATCTCCAGGTAAAGATAGTTCAGTGAATGCAAAT , target or system LXRa homodimer (NR concentration 270 nM).
0.615

Find the measured PBM binding z-score: item TCAGATAGGTGAAGGTAACTCAGGTACGCAGTCG , target or system LXRa homodimer (NR concentration 270 nM).
-0.148

Find the measured PBM binding z-score: item CCTTACGGGTCAAGGTTACAGCACGGGTGGTACG , target or system LXRa homodimer (NR concentration 270 nM).
0.209

Find the measured PBM binding z-score: item CCTACTGGGCCAAGGTCATTTATCAGTCAAAGCA , target or system LXRa homodimer (NR concentration 270 nM).
1.94

Find the measured PBM binding z-score: item TCGAGTAGGTGAGGGGCATTCAGAATGGCGTCGA , target or system LXRa homodimer (NR concentration 270 nM).
-0.49

Find the measured PBM binding z-score: item GCTATTAGTTGAACGGGCAACCGAATGATTCTCG , target or system LXRa homodimer (NR concentration 270 nM).
-0.165

Find the measured PBM binding z-score: item CCTGCTAGGTCAATGGTCCGCTAAAGCAGCTCGC , target or system LXRa homodimer (NR concentration 270 nM).
-0.135
